Provide the recorded % Inhibition of VEGF165-mediated pTyr Activity, n = 3 for the entries that follow.
target: human KDR (VEGFR2) on cells (human, UniProt P35968 20-1356); assay: cell-based or functional assay; note: test concentration or dose not given here
Sequence (P35968 20-1356): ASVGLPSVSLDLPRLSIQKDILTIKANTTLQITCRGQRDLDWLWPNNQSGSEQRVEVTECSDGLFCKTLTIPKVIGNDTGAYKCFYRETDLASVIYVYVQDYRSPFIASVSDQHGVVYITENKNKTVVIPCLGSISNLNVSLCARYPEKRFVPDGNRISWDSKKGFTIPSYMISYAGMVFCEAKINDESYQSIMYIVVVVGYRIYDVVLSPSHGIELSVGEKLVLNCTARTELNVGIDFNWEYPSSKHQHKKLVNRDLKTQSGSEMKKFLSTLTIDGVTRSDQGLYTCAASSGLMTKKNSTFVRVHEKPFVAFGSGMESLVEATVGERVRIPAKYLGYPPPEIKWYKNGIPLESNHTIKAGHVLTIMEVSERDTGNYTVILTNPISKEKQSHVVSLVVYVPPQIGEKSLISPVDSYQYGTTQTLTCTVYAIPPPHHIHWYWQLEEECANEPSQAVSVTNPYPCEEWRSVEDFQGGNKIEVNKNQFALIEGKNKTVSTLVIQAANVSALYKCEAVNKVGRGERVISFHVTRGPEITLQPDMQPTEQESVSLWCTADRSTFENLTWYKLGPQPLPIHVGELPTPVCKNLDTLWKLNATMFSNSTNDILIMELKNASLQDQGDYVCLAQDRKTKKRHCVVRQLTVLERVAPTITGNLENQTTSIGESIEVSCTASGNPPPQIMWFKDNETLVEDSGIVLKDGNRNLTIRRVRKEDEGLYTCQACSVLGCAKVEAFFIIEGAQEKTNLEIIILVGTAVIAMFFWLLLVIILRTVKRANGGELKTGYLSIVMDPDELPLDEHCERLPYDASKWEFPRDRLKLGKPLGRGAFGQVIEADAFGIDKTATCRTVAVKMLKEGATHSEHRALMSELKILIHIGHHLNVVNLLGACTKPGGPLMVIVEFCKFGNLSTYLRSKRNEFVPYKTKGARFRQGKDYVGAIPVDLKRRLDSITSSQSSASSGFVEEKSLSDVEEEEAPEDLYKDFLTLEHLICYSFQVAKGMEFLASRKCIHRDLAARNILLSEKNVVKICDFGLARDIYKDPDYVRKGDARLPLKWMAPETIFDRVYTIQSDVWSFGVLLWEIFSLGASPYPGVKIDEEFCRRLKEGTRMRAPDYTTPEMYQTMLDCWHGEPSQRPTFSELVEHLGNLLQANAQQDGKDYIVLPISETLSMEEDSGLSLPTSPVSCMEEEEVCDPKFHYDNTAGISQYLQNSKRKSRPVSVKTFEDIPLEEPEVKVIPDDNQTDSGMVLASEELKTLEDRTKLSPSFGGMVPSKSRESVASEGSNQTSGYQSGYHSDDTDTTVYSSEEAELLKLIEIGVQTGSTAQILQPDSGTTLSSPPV
Give the number first and the unit second.

Worked examples, 2 binders total:
What measured % Inhibition of VEGF165-mediated pTyr Activity, n = 3 goes with anti-KDR monoclonal antibody 30A1 (antibody, V domains shown, Fully human mAb from XenoMouse (IgG2 or IgG4 strain); hybridoma supernatant) VH: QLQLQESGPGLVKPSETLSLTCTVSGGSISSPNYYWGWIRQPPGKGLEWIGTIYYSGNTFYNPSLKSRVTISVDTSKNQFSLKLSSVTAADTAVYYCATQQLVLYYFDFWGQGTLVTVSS VL: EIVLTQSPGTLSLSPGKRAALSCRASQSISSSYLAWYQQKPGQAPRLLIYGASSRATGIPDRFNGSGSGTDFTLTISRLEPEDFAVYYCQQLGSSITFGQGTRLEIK ?
52%

What measured % Inhibition of VEGF165-mediated pTyr Activity, n = 3 goes with anti-KDR monoclonal antibody 31E11 (antibody, V domains shown, Fully human mAb from XenoMouse (IgG2 or IgG4 strain); hybridoma supernatant) VH: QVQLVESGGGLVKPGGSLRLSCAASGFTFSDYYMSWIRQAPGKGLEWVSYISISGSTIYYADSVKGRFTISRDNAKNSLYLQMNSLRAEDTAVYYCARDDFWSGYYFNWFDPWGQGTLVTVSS VL: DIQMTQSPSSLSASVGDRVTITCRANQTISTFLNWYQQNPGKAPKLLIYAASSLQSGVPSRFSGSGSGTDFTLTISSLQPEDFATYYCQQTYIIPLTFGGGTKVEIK ?
59%

# evaluate next
What measured % Inhibition of VEGF165-mediated pTyr Activity, n = 3 goes with anti-KDR monoclonal antibody 30D7 (antibody, V domains shown, Fully human mAb from XenoMouse (IgG2 or IgG4 strain); hybridoma supernatant) VH: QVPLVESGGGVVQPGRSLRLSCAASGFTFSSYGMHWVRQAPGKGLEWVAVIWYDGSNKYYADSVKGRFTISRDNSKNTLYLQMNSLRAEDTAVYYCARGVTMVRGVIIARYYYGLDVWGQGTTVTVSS VL: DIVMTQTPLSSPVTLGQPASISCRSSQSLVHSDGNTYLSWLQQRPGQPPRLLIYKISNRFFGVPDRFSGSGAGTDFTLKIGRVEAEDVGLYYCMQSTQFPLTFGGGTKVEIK ?
59%

Cited source: patent US20100260765A1
